# protocol-notes: Absorption and emission properties of HBR-binding PYP variants in presence of HBR
# Type: physicochemical
# setup-conditions: variant with HBR; fraction
Fluorescence quantum yield by entry:

- molecule: "Clone 4: fluorescent HBR-binding PYP variant, SEQ ID NO: 4, residues 94-101 WDIPTNPE (protein, Functional derivative of SEQ ID NO: 48 - Clone 4) MEHVAFGSEDIENTLAKMDDGQLDGLAFGAIQLDGDGNILQYNAAEGDITGRDPKQVIGKNFFKDVAPGTDSPEFYGKFKEGVASGNLNTMFEWDIPTNPEPTKVKVHMKKALSGDSYWVFVKRV"
  Fluorescence quantum yield: 0.06
- molecule: "Clone 5: fluorescent HBR-binding PYP variant, SEQ ID NO: 5, residues 94-101 WRIPTECA (protein, Functional derivative of SEQ ID NO: 48 - Clone 5) MEHVAFGSEDIENTLAKMDDGQLDGLAFGAIQLDGDGNILQYNAAEGDITGRDPKQVIGKNFFKDVAPGTDSPEFYGKFKEGVASGNLNTMFEWRIPTECAPTKVKVHMKKALSGDSYWVFVKRV"
  Fluorescence quantum yield: 0.06
- molecule: "Clone 2: fluorescent HBR-binding PYP variant, SEQ ID NO: 2, residues 94-101 WLIPTLPQ (protein, Functional derivative of SEQ ID NO: 48 - Clone 2) MEHVAFGSEDIENTLAKMDDGQLDGLAFGAIQLDGDGNILQYNAAEGDITGRDPKQVIGKNFFKDVAPGTDSPEFYGKFKEGVASGNLNTMFEWLIPTLPQPTKVKVHMKKALSGDSYWVFVKRV"
  Fluorescence quantum yield: 0.06
- molecule: "Clone 6: fluorescent HBR-binding PYP variant, SEQ ID NO: 6, residues 94-101 WLIPTRNA (protein, Functional derivative of SEQ ID NO: 48 - Clone 6) MEHVAFGSEDIENTLAKMDDGQLDGLAFGAIQLDGDGNILQYNAAEGDITGRDPKQVIGKNFFKDVAPGTDSPEFYGKFKEGVASGNLNTMFEWLIPTRNAPTKVKVHMKKALSGDSYWVFVKRV"
  Fluorescence quantum yield: 0.07

Reference source: patent US20170137473A1
